- Tested on: PC-14
- assay_details: relative viability (nuclei count vs DMSO), 5 days (fraction); higher = more cells survive
- test_context: first compound 0.02 µM
endpoint: relative viability
Give the value as a plain number.

Please review the entries below; each comes with its answer.
[[record]]
compound = "CCNC(=O)c1noc(-c2cc(C(C)C)c(O)cc2O)c1-c1ccc(CN2CCOCC2)cc1 [Luminespib] + CC(C)C[C@H](NC(=O)[C@H](Cc1ccccc1)NC(=O)c1cnccn1)B(O)O [Bortezomib] (partner 0.002 µM)"
numeric_value = 0.988

[[record]]
compound = "CN1CCN(CCOc2cc(OC3CCOCC3)c3c(Nc4c(Cl)ccc5c4OCO5)ncnc3c2)CC1 [Saracatinib] + CC1(C)CCC(c2ccc(Cl)cc2)=C(CN2CCN(c3ccc(C(=O)NS(=O)(=O)c4ccc(N[C@H](CCN5CCOCC5)CSc5ccccc5)c(S(=O)(=O)C(F)(F)F)c4)cc3)CC2)C1 [Navitoclax] (partner 0.5 µM)"
numeric_value = 1.01

[[record]]
compound = "CN1CCN(CCOc2cc(OC3CCOCC3)c3c(Nc4c(Cl)ccc5c4OCO5)ncnc3c2)CC1 [Saracatinib] + Nc1nc2[nH]cc(CCc3ccc(C(=O)N[C@@H](CCC(=O)O)C(=O)O)cc3)c2c(=O)[nH]1 [Pemetrexed] (partner 0.2 µM)"
numeric_value = 0.133


Enquiry: Tell me the measured relative viability of CN1CCN(CCOc2cc(OC3CCOCC3)c3c(Nc4c(Cl)ccc5c4OCO5)ncnc3c2)CC1 [Saracatinib] + O=C(c1cc(Cc2n[nH]c(=O)c3ccccc23)ccc1F)N1CCN(C(=O)C2CC2)CC1 [Olaparib] (partner 8 µM) , please.
Return: 0.263

====

- Tested on: LU99A
- assay_details: relative viability (nuclei count vs DMSO), 5 days (fraction); higher = more cells survive
- test_context: first compound 0.006325 µM
Please respond with yes (1) when measured relative viability is strictly beneath 0.5, and with no (0) in all other cases.

[[record]]
compound = "CCNC(=O)c1noc(-c2cc(C(C)C)c(O)cc2O)c1-c1ccc(CN2CCOCC2)cc1 [Luminespib] + CS(=O)(=O)N1CCN(Cc2cc3nc(-c4cccc5[nH]ncc45)nc(N4CCOCC4)c3s2)CC1 [Pictilisib] (partner 1 µM)"
class_label = "yes (1)"

[[record]]
compound = "CCNC(=O)c1noc(-c2cc(C(C)C)c(O)cc2O)c1-c1ccc(CN2CCOCC2)cc1 [Luminespib] + Cc1nc(NC(=O)N2CCC[C@H]2C(N)=O)sc1-c1ccnc(C(C)(C)C(F)(F)F)c1 [Alpelisib] (partner 2 µM)"
class_label = "no (0)"

[[record]]
compound = "CCNC(=O)c1noc(-c2cc(C(C)C)c(O)cc2O)c1-c1ccc(CN2CCOCC2)cc1 [Luminespib] + Nc1nc2[nH]cc(CCc3ccc(C(=O)N[C@@H](CCC(=O)O)C(=O)O)cc3)c2c(=O)[nH]1 [Pemetrexed] (partner 0.2 µM)"
class_label = "yes (1)"

[[record]]
compound = "CCNC(=O)c1noc(-c2cc(C(C)C)c(O)cc2O)c1-c1ccc(CN2CCOCC2)cc1 [Luminespib] + Nc1ncn([C@H]2C[C@H](O)[C@@H](CO)O2)c(=O)n1 [Decitabine] (partner 2 µM)"
class_label = "no (0)"


Enquiry: Lab note: confirm whether the reported relative viability for this compound is below 0.5, equality not counting. compound: CCNC(=O)c1noc(-c2cc(C(C)C)c(O)cc2O)c1-c1ccc(CN2CCOCC2)cc1 [Luminespib] + N=C(N)NC(=N)NCCc1ccccc1 [Phenformin] (partner 250 µM)
Return: no (0)
